compounds and their reported drug-induced phospholipidosis
# Tested on: A549-ACE2
# Assay Procedure: drug-induced phospholipidosis relative to tamoxifen; higher = more phospholipidosis
# Run Parameters: 0.3 µM; 48 h
Supply the numeric figure in %, leaving out any unit text.

Here is how some compounds turned out for drug-induced phospholipidosis.
> print(dat)
                                   compound  target.entity              quantity.measured  units.symbol  result.number
1  CC(C)Oc1ccc(-c2nc(-c3cccc4c3CC[C@@H]4NCCO)no2)cc1C#N      A549-ACE2  drug-induced phospholipidosis             %          -8.87
2  CNC(=O)c1ccccc1Sc1ccc2c(/C=C/c3ccccn3)n[nH]c2c1      A549-ACE2  drug-induced phospholipidosis             %           1.43
3  C[C@H]1[C@H](NC(=O)/C(=N\OC(C)(C)C(=O)O)c2csc(N)n2)C(=O)N1S(=O)(=O)O      A549-ACE2  drug-induced phospholipidosis             %           4.27
4  C=CCN(C)CCCCCCOc1ccc(C(=O)c2ccc(Br)cc2)c(F)c1      A549-ACE2  drug-induced phospholipidosis             %           5.45
5  Cc1nc(Nc2ccc(F)cc2)nc(N2CCc3ccccc3C2C)c1C (stereo unspecified)      A549-ACE2  drug-induced phospholipidosis             %           2.14

Ask: Lab request: please report drug-induced phospholipidosis under test system A549-ACE2 for O=c1[nH]c2ccccc2n1C1CCN(CCCC(c2ccc(F)cc2)c2ccc(F)cc2)CC1 [pimozide]
Reply: 4.99
